Origin of the recorded values: the array DNA melting data of Ke et al. (doi:10.1101/2024.01.08.574731)

- Experiment description: melting temperature; fluorescence melt of hairpins on a sequencing array, two-state fit, raised by 9.35 °C to match UV melts
- Measurement conditions: sodium 0.088 M
// class assignment uses Tm with these ranges: lower segment = under 50 °C, middle segment = from 50 °C up to 60 °C, upper segment = 60 °C and over

[ask] Lab log: GTCTTGGGAAACTAAGAC (((((.(....).))))) — assign Tm category
[reply] lower segment

[ask] Lab log: GTCACGCGAAAGCGGAC (((.(((....)))))) — assign Tm category
[reply] middle segment

[ask] Lab log: GTCCGAACGAAAGTTGAC (((..(((....)))))) — assign Tm category
[reply] lower segment

[ask] Lab log: GTCGCACCGAAAGGTGAC (((..(((....)))))) — assign Tm category
[reply] lower segment

[ask] Lab log: GATCGAATTTTCGATC ((((((....)))))) — assign Tm category
[reply] middle segment

[ask] Lab log: GTGAGTGGAAACGCTTAC ((.((.(....).)).)) — assign Tm category
[reply] lower segment

[ask] Lab log: GATCGGGGACCCGATC ((((((....)))))) — assign Tm category
[reply] upper segment

[ask] Lab log: GCGTCCTTACGC ((((....)))) — assign Tm category
[reply] middle segment

[ask] Lab log: GATCCGCAACCGGATC ((((((....)))))) — assign Tm category
[reply] middle segment

[ask] Lab log: GATCGCTAAGGCGATC ((((((....)))))) — assign Tm category
[reply] upper segment

[ask] Lab log: GGCGTTCGAAAGAAAGCC (((.(((....))).))) — assign Tm category
[reply] middle segment

[ask] Lab log: GATAACGGAAACGCTATC ((((.((....)).)))) — assign Tm category
[reply] lower segment

[ask] Lab log: GCGTCCGAAAGGATTCGC ((((((....)))..))) — assign Tm category
[reply] lower segment

[ask] Lab log: GTGCTCGAAAGAGGCCAC ((((((....)))..))) — assign Tm category
[reply] lower segment

[ask] Lab log: GATCGCGAGTGCGATC ((((((....)))))) — assign Tm category
[reply] upper segment

[ask] Lab log: GATCCTGTTAGGATC ((((((...)))))) — assign Tm category
[reply] middle segment

[ask] Lab log: GCCCCAGCGAAAGCTGGC (((..(((....)))))) — assign Tm category
[reply] lower segment

[ask] Lab log: GGGTGTGGAAACACGCCC (((.(((....))).))) — assign Tm category
[reply] upper segment

[ask] Lab log: GACAGGCGAAAGCCGTC (((.(((....)))))) — assign Tm category
[reply] upper segment

[ask] Lab log: GCGTGTGGAAACACGTGC ((..(((....)))..)) — assign Tm category
[reply] upper segment

[ask] Lab log: GATCTCTGGCGAGATC ((((((....)))))) — assign Tm category
[reply] middle segment

[ask] Lab log: GTGATGCGAAAGCACCAC (((.(((....))).))) — assign Tm category
[reply] middle segment

[ask] Lab log: GCAGACGGAAACATCTGC (((((.(....).))))) — assign Tm category
[reply] lower segment

[ask] Lab log: GCGCACGGAAACGTGCAC (.(((((....))))).) — assign Tm category
[reply] middle segment

[ask] Lab log: GACACCGAAAGGTGGGTC ((((((....)))..))) — assign Tm category
[reply] upper segment

[ask] Lab log: GTGCAGGAAACTGCAC ((((((....)))))) — assign Tm category
[reply] upper segment

[ask] Lab log: GCAAGGCGAAAGCATCGC ((.(.((....)).).)) — assign Tm category
[reply] lower segment

[ask] Lab log: GATCGGCATACCGATC ((((((....)))))) — assign Tm category
[reply] middle segment

----------
- Experiment description: melting temperature; fluorescence melt of hairpins on a sequencing array, two-state fit, raised by 9.35 °C to match UV melts
- Measurement conditions: sodium 0.088 M
Endpoint label: Tm (°C)
The response must be a number in °C with no trailing unit.

What the record says about GTGGCGGGAAACCACCAC ((((.((....)).)))) : Tm is 51.5

What the record says about GCACGTCGAAAGACTTGC (((.(((....))).))) : Tm is 51.1

What the record says about GCTCTGCGAAAGCTGAGC ((((.((....)).)))) : Tm is 68.3

What the record says about GAGGAAGGAAACTTTCTC (((.(((....))).))) : Tm is 35.3

What the record says about GATCTCAGTGAGATC ((((((...)))))) : Tm is 53.1

What the record says about GGAAACGAAAGTTCTTCC ((((((....)))..))) : Tm is 32.2

What the record says about GCCTAGCGAAAGCTACGC ((.((((....)))).)) : Tm is 41.8

What the record says about GATAGGCGAAAGCCCATC (((.(((....))).))) : Tm is 37.7

What the record says about GCAAACGAAAGTTAATGC ((((((....)))..))) : Tm is 30.6

What the record says about GAGTATGGAAACATACCC (.(((((....))))).) : Tm is 31.4

What the record says about GCGGACACGAAAGTGCGC (((..(((....)))))) : Tm is 55.6

What the record says about GGAAATGGAAACACTTCC ((((.((....)).)))) : Tm is 30.2

What the record says about GATGTCGGAAACGGTATC (((..((....))..))) : Tm is 31.6

What the record says about GATCACGATGGTGATC ((((((....)))))) : Tm is 58.8

What the record says about GATCTATGCTTAGATC ((((((....)))))) : Tm is 44.5

What the record says about GAGCCGCGAAAGCGACTC (((.(((....))).))) : Tm is 65.3

What the record says about GAATTGGGAAACCAATTC (((((((....))))))) : Tm is 54

What the record says about CGCACCGGAAACGGAGCG (((.(((....))).))) : Tm is 60.9

What the record says about GTCCTGGGAAACCAAGAC (((.(((....))).))) : Tm is 34.5

What the record says about GTCGGGTCGAAAGACGAC (((..(((....)))))) : Tm is 47.4

What the record says about GATCAGGTACCTGATC ((((((....)))))) : Tm is 58.8

What the record says about GGGAGTGAAAACTCCC ((((((....)))))) : Tm is 65.2

What the record says about GTCTCCGAAAGGAAAGAC ((((((....)))..))) : Tm is 42.4

What the record says about GCACACGAAAGTGTTGC ((((((....))).))) : Tm is 53.8

What the record says about GCGTAGGGAAACCTATGC ((.((((....)))).)) : Tm is 50.3

What the record says about GTTTAAGCGAAAGCTAAC (((..(((....)))))) : Tm is 32

What the record says about GTTGGTGAAAACCAAC ((((((....)))))) : Tm is 58.5

What the record says about GATCTATCGATAGATC ((((((....)))))) : Tm is 48

What the record says about GTGGTACGAAAGTATCAC (((.(((....))).))) : Tm is 54.2

What the record says about GCAGTGGGAAACCACCAC (..((((....))))..) : Tm is 30.6

What the record says about GCATCGCGAAAGCCAGGC ((.(.((....)).).)) : Tm is 37.2

What the record says about GCTGTTGCGAAAGCAAGC (((..(((....)))))) : Tm is 47.3

What the record says about GTGATCGAAAGATTCAC ((((((....))).))) : Tm is 43.4

What the record says about GCCTGGCGAAAGCCACGC ((.((((....)))).)) : Tm is 49

What the record says about GAGAAAGAAATTTCTC ((((((....)))))) : Tm is 36.4

What the record says about GGTGTCGAAAGACCGACC ((((((....)))..))) : Tm is 39.1

What the record says about GTCATCGAAAGATCGAC ((((((....))).))) : Tm is 35.7

What the record says about GGTCACGAAAGTGGTACC ((((((....)))..))) : Tm is 42.7

What the record says about GTCCTCGAAAGAGCGAC ((((((....))).))) : Tm is 45.4

What the record says about GTGGCCGGAAACGACCAC ((((.((....)).)))) : Tm is 56.5

What the record says about GCGCGGCGAAAGCTGAGC ((.(.((....)).).)) : Tm is 63.2

What the record says about GAAGGAGGAAACTTCTTC ((((.((....)).)))) : Tm is 46.8

What the record says about GGACACGGAAACACGTCC ((((..(....)..)))) : Tm is 36.4

What the record says about GCGCGAACGAAAGTTCGC (((..(((....)))))) : Tm is 68.4

What the record says about GGCCCGACGAAAGTCGCC (((..(((....)))))) : Tm is 35.2

What the record says about GAGGCTGGAAACGGCTTC ((.((.(....).)).)) : Tm is 36.6

What the record says about GATCCCCATTGGGATC ((((((....)))))) : Tm is 59.6

What the record says about GATCCTCTTAAGGATC ((((((....)))))) : Tm is 52.9
